These data points were gathered from paper PMC8151276.

Molecular target: RXFP3 (Homo sapiens, UniProt Q9NSD7)
Construct: purchased Promega (in-house HiBiT-GPCR construct library, NanoBRET)
Sequence (Q9NSD7 whole entry): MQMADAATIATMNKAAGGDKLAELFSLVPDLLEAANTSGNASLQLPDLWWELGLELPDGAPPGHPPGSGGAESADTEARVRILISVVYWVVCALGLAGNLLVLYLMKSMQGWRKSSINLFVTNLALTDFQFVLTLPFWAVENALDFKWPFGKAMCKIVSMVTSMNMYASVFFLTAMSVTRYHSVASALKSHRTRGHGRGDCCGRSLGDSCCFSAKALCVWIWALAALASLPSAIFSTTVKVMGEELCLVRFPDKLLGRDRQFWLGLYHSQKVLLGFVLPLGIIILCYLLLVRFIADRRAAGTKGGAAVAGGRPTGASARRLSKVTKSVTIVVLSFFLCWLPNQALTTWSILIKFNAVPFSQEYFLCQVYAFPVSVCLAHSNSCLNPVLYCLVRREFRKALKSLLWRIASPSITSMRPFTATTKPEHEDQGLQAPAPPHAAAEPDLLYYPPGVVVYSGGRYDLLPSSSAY
Assay: NanoBRET screen HiBiT-RXFP3 in HEK293
Assay type: binding
Conditions: RXFP3; tracer 0.1μM
Binarize NanoBRET Fold Response at 1; below is MET, at or above is NOT MET.

MOLECULAR_STRING: COc1ccccc1N1CCN(CCCCN2C(=O)c3ccc(CNC(=O)CCOCCNC(=O)c4ccc(CNC(=O)CCc5ccc6n5[B-](F)(F)[N+]5=C(c7ccc[nH]7)C=CC5=C6)cc4)cc3C2=O)CC1
GROUP: NOT MET

Q: is_below(NanoBRET Fold Response, 1) for O=C(CCc1ccc2n1[B-](F)(F)[N+]1=C(c3ccc[nH]3)C=CC1=C2)NCCOCCOCCNC(=O)OCCOCCN1CCN(C2=Nc3ccccc3Sc3ccccc32)CC1 ?
Ans: MET
